Listing of entries alongside the reported Rank -- prewash.
- assayed_target: Transferrin (Homo sapiens)
- measurement_protocol: Peptide microarray ranking, labeled transferrin with E. coli lysate competitor
- Type: binding
- run_parameters: array with organic prewash
Where no end group is shown, it is not given here.
The answer should be written as a number, with no unit following it.

- sequence_record: "APYAPQQIHYWSTLGFKGSC [TRF25]"
  Rank -- prewash: 603
- sequence_record: "LDPLFNTSIMVNWHRWMGSC [TRF27]"
  Rank -- prewash: 3325

// query // map QYHHFMNLKRQGRAQAYGSC [TRF21] to recorded Rank -- prewash (system: Transferrin (Homo sapiens))
// result 5

// query Write down the reported Rank -- prewash of KEDNPGYSSEQDYNKLDGSC [TRF19] , test system: Transferrin (Homo sapiens).
// result 9601

// query Hello, I am looking for reported Rank -- prewash with Transferrin (Homo sapiens) for SVKPWRPLITGNRWLNSGSC [TRF24] . Could you help?
// result 958

// query I'm curious: which Rank -- prewash was measured for AHKVVPQRQIRHAYNRYGSC [TRF26] tested on Transferrin (Homo sapiens)?
// result 436

// query Notebook entry, Transferrin (Homo sapiens) assay: Rank -- prewash of GQTQFAMHRFQQWYKIKGSC [TRF20] = ?
// result 289

// query Which Rank -- prewash is reported with Transferrin (Homo sapiens) for this entry: FRGWAHIFFGPHVIYRGGSC [TRF23] ?
// result 2091

// query So what Rank -- prewash did HAYKGPGDMRRFNHSGMGSC [TRF22] get with Transferrin (Homo sapiens)?
// result 61

====

- assayed_target: Transferrin (Homo sapiens, UniProt P02787)
- Sequence (P02787 20-698): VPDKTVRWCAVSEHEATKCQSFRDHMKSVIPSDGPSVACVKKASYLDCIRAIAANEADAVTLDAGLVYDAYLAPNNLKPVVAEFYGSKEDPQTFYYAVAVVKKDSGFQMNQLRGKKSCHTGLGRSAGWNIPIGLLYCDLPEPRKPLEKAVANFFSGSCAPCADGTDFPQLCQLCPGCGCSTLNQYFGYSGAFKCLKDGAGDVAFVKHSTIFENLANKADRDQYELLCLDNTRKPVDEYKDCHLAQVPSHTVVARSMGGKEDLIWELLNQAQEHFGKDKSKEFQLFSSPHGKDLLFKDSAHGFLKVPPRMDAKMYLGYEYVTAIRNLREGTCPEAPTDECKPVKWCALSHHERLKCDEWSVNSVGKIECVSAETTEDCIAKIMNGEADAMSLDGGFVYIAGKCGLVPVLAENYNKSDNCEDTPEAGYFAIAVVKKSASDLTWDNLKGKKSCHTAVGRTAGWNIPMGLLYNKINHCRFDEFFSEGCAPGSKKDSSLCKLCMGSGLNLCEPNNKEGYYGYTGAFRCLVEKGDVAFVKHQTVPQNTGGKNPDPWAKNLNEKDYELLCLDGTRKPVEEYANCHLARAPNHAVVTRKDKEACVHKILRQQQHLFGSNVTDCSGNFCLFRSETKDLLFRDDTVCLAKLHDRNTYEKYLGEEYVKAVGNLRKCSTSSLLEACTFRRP
- measurement_protocol: SPR steady state affinity of mRNA display clones (Biacore T100)
- Type: binding
- run_parameters: steady state affinity model
Where no end group is shown, it is not given here.
Reported Kd values follow for various sequences

Past entries and their recorded results:
- sequence_record: "GHKVVPQRQIRHAYNRYGSC [TBPL005]"
  Kd: "150 µM"
- sequence_record: "AHKVVPQRQMRHAYSRYGSC [TBPM023]"
  Kd: "11.6 µM"

--- query ---
// query Which Kd value belongs to GHKVVPQRQMRHAYNRNGSC [TBPL025] ?
// result 150 µM

====

- assayed_target: TNF-α (Homo sapiens, UniProt P01375)
- Sequence (P01375 77-233 limits assumed, species assumed): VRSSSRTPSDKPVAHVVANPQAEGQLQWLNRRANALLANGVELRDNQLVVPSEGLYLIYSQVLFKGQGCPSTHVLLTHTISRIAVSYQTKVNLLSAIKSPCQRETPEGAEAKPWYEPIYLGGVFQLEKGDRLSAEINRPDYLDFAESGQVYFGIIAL
- measurement_protocol: SPR of TNF1 lead and mutant peptides on captured TNF-α (Biacore A100)
- Type: binding
- run_parameters: several sensorgrams; read-out: Kd determined from kinetic fits
Where no end group is shown, it is not given here.
assay_endpoint: Kd (nM)
The reply should contain only the number, in nM.

// query Consider the sequence shown here: FERSYLKMPWKFLQSRQGSC [TNF1-opt] What is its recorded Kd?
// result 700

====

Listed sequences paired with reported Rank - non-prewash
- assayed_target: Transferrin (Homo sapiens, UniProt P02787)
- measurement_protocol: Peptide microarray ranking, labeled transferrin with E. coli lysate competitor
- Type: binding
- run_parameters: array without organic prewash
Where no end group is shown, it is not given here.

- sequence_record: "SVKPWRPLITGNRWLNSGSC [TRF24]"
  assayed_target: "Transferrin (Homo sapiens, UniProt P02787)"
  Rank - non-prewash: 71
- sequence_record: "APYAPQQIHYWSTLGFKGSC [TRF25]"
  assayed_target: "Transferrin (Homo sapiens, UniProt P02787)"
  Rank - non-prewash: 736
- sequence_record: "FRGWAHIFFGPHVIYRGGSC [TRF23]"
  assayed_target: "Transferrin (Homo sapiens, UniProt P02787)"
  Rank - non-prewash: 2722
- sequence_record: "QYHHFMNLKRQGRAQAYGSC [TRF21]"
  assayed_target: "Transferrin (Homo sapiens, UniProt P02787)"
  Rank - non-prewash: 84
- sequence_record: "GQTQFAMHRFQQWYKIKGSC [TRF20]"
  assayed_target: "Transferrin (Homo sapiens, UniProt P02787)"
  Rank - non-prewash: 18

// query Data request, read-out Rank - non-prewash, for HAYKGPGDMRRFNHSGMGSC [TRF22]
// result 711

// query Query (sequence): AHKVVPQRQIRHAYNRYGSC [TRF26] ; field requested: Rank - non-prewash
// result 596

// query # get_value(readout='Rank - non-prewash', item= KEDNPGYSSEQDYNKLDGSC [TRF19] )
// result 5010

// query Consider the sequence shown here: LDPLFNTSIMVNWHRWMGSC [TRF27] What is its recorded Rank - non-prewash?
// result 1289

====

Overview of recorded Kd Fold-Change Relative to Lead for various sequences
- assayed_target: TNF-α (Homo sapiens, UniProt P01375)
- measurement_protocol: SPR of TNF1 lead and mutant peptides on captured TNF-α (Biacore A100)
- Assay type: binding
- From the text: Scanning Mutagenesis of the TNF1 Lead Peptide. After lead identification, the next step in the AMPLI algorithm is characterization of point mutations in the lead heteropolymer. […] This concentration was used to increase the high-end dynamic range for quantifying enhancing point mutations at the expense of low-end dynamic range for quantifying detrimental point mutations. […]
Where no end group is shown, it is not given here.
API doc: respond with a numeric literal and nothing else, no unit.

Sample records with Kd Fold-Change Relative to Lead:
- sequence_record: "FERYPLMMPWSFLQSRQGSC [Synbody D4Y]"
  assayed_target: "TNF-α (Homo sapiens, UniProt P01375)"
  Kd Fold-Change Relative to Lead: 3.6
- sequence_record: "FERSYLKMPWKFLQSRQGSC [TNF1-opt]"
  assayed_target: "TNF-α (Homo sapiens, UniProt P01375)"
  Kd Fold-Change Relative to Lead: 100
- sequence_record: "FERYPLMMPWKFLQSRQGSC [D4Y + S11K]"
  assayed_target: "TNF-α (Homo sapiens, UniProt P01375)"
  Kd Fold-Change Relative to Lead: 17

Continue with the next sequence.
// query Which Kd Fold-Change Relative to Lead value is on record for FERYPLKMPWSFLQSRQGSC [D4Y + M7K] ?
// result 9.4
